Values of IC50 for 3-phosphoinositide-dependent protein kinase 1 (Homo sapiens, UniProt O15530), collected from a number of published sources:

Completed entries (count: 7):
Nc1nccn2c1c(-c1ccc3ccc(-c4ccccc4)nc3c1)nc2[C@H]1C[C@@H](CN2CCC2)C1 : > 30 µM
CC(C)(C)c1nc2c3ccc(F)cc3c3c(=O)[nH]ccc3c2[nH]1 : 0.028 µM
COc1cc(Nc2c(C#N)cnc3cc(/C=C/CCN4CCN(C)CC4)c(OC)cc23)c(Cl)cc1Cl : > 10 µM
COc1cc2c(cc1NCCN1CCOCC1)ncc1c(N)nc3c(C)c(N)ccc3c12 : 0.3 µM
CN1CCN(c2ccc(OC(F)(F)F)c(Nc3nccc(-c4cc5c(n4C)CCNC5=O)n3)c2)CC1 : > 10 µM
CC(C)c1[nH]nc(C(F)(F)F)c1-c1ccnc(Nc2ccc(N3CCC(N(C)C)CC3)cn2)n1 : > 10 µM
Cc1[nH]nc2c1c(=O)n(CCCN)c1ccc(Br)cc21 : 0.011 µM

Let us move to another entry and its IC50.
Please fill in: IC50 reported for `CC(C)OC(=O)N1CCn2cc(C3=C(c4cnc5ccccn45)C(=O)NC3=O)c3cccc(c32)C1` = 6.5 µM
